Overview of reported pIC50 across a group of compounds:
# TESTED_ON: NAMPT (Homo sapiens (Human))
# Sequence (P43490 whole entry): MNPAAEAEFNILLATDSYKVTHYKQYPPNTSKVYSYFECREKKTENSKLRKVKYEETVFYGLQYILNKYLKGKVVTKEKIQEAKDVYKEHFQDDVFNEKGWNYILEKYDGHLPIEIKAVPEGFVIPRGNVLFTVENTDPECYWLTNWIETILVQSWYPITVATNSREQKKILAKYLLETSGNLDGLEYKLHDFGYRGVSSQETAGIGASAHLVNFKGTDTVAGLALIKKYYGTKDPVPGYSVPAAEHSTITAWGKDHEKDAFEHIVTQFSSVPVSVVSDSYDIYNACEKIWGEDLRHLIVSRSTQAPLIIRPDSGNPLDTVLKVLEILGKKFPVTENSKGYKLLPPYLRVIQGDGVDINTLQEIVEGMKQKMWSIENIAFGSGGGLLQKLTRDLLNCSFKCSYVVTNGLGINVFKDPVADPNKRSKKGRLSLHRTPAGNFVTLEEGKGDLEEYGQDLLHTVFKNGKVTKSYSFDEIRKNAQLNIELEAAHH
# METHOD_DESCRIPTION: NAMPT biochemical inhibition assay (NMN quantified by mass spectrometry)
# MEASUREMENT_CONDITIONS: NAMPT biochemical inhibition; read-out: Biochem IC50
pIC50: −log10 of the molar value.
MEASURE_NAME: pIC50

SMI | MEASURED_VALUE
O=C(NCc1cccnc1)Nc1ccc(S(=O)(=O)c2cccc3c2OCC3)cc1 | 8.96
O=C(NCc1cccnc1)Nc1ccc(S(=O)(=O)NC2CCCCC2)cc1 | 9.00
CN(Cc1ccccc1)S(=O)(=O)c1ccc(NC(=O)NCc2cccnc2)cc1 | 8.96
CC(C)C(=O)Nc1cccc(S(=O)(=O)c2ccc(NC(=O)NCc3cccnc3)cc2)c1 | 8.92
O=C(NCc1cccnc1)Nc1ccc(S(=O)(=O)c2ccnc(N3CCOCC3)c2Cl)cc1 | 8.40
CC(C)C(=O)NC1CCN(S(=O)(=O)c2ccc(NC(=O)NCc3cccnc3)cc2)CC1 | 8.30
CC[C@H]1CCCCN1S(=O)(=O)c1ccc(NC(=O)NCc2cccnc2)cc1 | 8.40
Cc1ccc(S(=O)(=O)c2ccc(NC(=O)NCc3cccnc3)cc2)cn1 | 8.31
O=C(NCc1cccnc1)Nc1ccc(S(=O)(=O)N2CCN(C(=O)c3ccco3)CC2)cc1 | 8.40
COc1ccc(NS(=O)(=O)c2ccc(NC(=O)NCc3cccnc3)cc2)c(OC)c1 | 8.52

---

# TESTED_ON: NAMPT (Homo sapiens (Human))
# METHOD_DESCRIPTION: NAMPT biochemical inhibition assay (NMN quantified by mass spectrometry)
# MEASUREMENT_CONDITIONS: NAMPT biochemical inhibition; read-out: Biochem IC50
pIC50: −log10 of the molar value.

MOLECULE | pIC50
COc1ncccc1NS(=O)(=O)c1ccc(NC(=O)NCc2cccnc2)cc1 | 8.15
COc1ccc(C)c(NS(=O)(=O)c2ccc(NC(=O)NCc3cccnc3)cc2)c1 | 8.70
Cc1ccc(C)c(NS(=O)(=O)c2ccc(NC(=O)NCc3cccnc3)cc2)c1 | 8.22
O=C(NCc1cccnc1)Nc1ccc(S(=O)(=O)Nc2cccc(N3CCOCC3)c2)cc1 | 8.22
O=C(NCc1cccnc1)Nc1ccc(S(=O)(=O)c2ccc(C(F)(F)F)nc2)cc1 | 7.55
O=C(NCc1ccc2ncsc2c1)c1ccc(S(=O)(=O)c2cccc(Cl)c2)cc1 | 4.94
O=C(NCc1cccnc1)Nc1ccc(S(=O)(=O)NCc2ccccn2)cc1 | 8.08
O=C(NCc1cccnc1)Nc1ccc(S(=O)(=O)c2cccc3c2OCO3)cc1 | 8.37
O=C(NCc1cccnc1)Nc1ccc(S(=O)(=O)C(F)(F)F)cc1 | 6.65
CCCOc1ccc(S(=O)(=O)c2ccc(NC(=O)NCc3cccnc3)cc2)cc1F | 8.89
NC(=O)c1cccc(S(=O)(=O)c2ccc(NC(=O)NCc3cccnc3)cc2)c1 | 8.10
Cc1cccc(S(=O)(=O)c2ccc(NC(=O)NCc3cccnc3)cc2)c1 | 8.70
O=C(NCc1cccnc1)Nc1ccc(S(=O)(=O)Nc2ccccc2N2CCCCC2)cc1 | 8.40
CC(C)CN(C)S(=O)(=O)c1ccc(NC(=O)NCc2cccnc2)cc1 | 8.15
COc1cc(NS(=O)(=O)c2ccc(NC(=O)NCc3cccnc3)cc2)ccc1C | 8.40
O=C(NCc1cccnc1)Nc1ccc(S(=O)(=O)Nc2cccc(C(=O)c3ccccc3)c2)cc1 | 8.36
O=C(NCc1cccnc1)Nc1ccc(S(=O)(=O)c2ccncc2)cc1 | 7.96
O=C(NCc1cccnc1)Nc1ccc(S(=O)(=O)N2CCC(N3CCOCC3)CC2)cc1 | 8.05
C[C@@H]1[C@H]2C[C@@H](C[C@H]1NS(=O)(=O)c1ccc(NC(=O)NCc3cccnc3)cc1)C2(C)C | 7.10
CCCn1cc(S(=O)(=O)c2ccc(NC(=O)NCc3cccnc3)cc2)cn1 | 8.20
COc1cccc(C2(N3CCN(S(=O)(=O)c4ccc(NC(=O)NCc5cccnc5)cc4)CC3)CCC(C)CC2)c1 (stereo not shown) | 8.40
O=C(NCc1cccnc1)Nc1ccc(S(=O)(=O)Nc2ccccc2OC(F)F)cc1 | 9.22
CCCN(CCC)C1CCN(S(=O)(=O)c2ccc(NC(=O)NCc3cccnc3)cc2)CC1 | 8.40
O=C(NCc1cccnc1)Nc1ccc(S(=O)(=O)c2ccccc2F)cc1 | 8.52
COc1ccc(F)cc1S(=O)(=O)c1ccc(NC(=O)NCc2cccnc2)cc1 | 8.70
O=C(NCc1cccnc1)Nc1ccc(S(=O)(=O)N2CCN(CC(=O)N3CCCC3)CC2)cc1 | 8.40
COc1ccc(S(=O)(=O)c2ccc(NC(=O)NCc3cccnc3)cc2)cn1 | 8.30
Nc1ccc(CNC(=O)Nc2ccc(S(=O)(=O)N3CCCCC3)cc2)cn1 | 8.07
Cc1ccc(N2CCN(S(=O)(=O)c3ccc(NC(=O)NCc4cccnc4)cc3)C[C@@H]2C)cc1 | 8.40
COc1ccc(S(=O)(=O)c2ccc(NC(=O)NCc3cccnc3)cc2)cc1F | 8.70
COc1ccccc1S(=O)(=O)c1ccc(NC(=O)NCc2cccnc2)cc1 | 8.70
O=C(NCc1cccnc1)Nc1ccc(S(=O)(=O)c2ccc(-c3ccccc3)cc2)cc1 | 8.24
COc1cc(S(=O)(=O)c2ccc(NC(=O)NCc3cccnc3)cc2)ccc1C | 8.57
O=C(NCc1cccnc1)Nc1ccc(S(=O)(=O)N2CCN(c3ncc(C(F)(F)F)cc3Cl)CC2)cc1 | 8.30
O=C(NCc1ccn2ccnc2c1)c1ccc(S(=O)(=O)c2ccccc2)cc1 | 7.51
O=C(NCc1cccnc1)Nc1ccc(S(=O)(=O)c2cccnc2N2CCOCC2)cc1 | 7.80
O=C(NCc1cccnc1)Nc1ccc(S(=O)(=O)Nc2ccc(N3CCCCC3)cc2)cc1 | 8.40
Cc1noc(C)c1S(=O)(=O)c1ccc(NC(=O)NCc2cccnc2)cc1 | 7.70
O=C(NCc1ccc2nccn2c1)Nc1ccc(S(=O)(=O)N2CC3CCC(C2)O3)cc1 | 8.10
O=C(NCc1cccnc1)Nc1ccc(S(=O)(=O)c2cc(Cl)cc(C(F)(F)F)c2)cc1 | 8.89
